Tested system: CDK11 (Homo sapiens, UniProt Q9BWU1)
Sequence (Q9BWU1 whole entry): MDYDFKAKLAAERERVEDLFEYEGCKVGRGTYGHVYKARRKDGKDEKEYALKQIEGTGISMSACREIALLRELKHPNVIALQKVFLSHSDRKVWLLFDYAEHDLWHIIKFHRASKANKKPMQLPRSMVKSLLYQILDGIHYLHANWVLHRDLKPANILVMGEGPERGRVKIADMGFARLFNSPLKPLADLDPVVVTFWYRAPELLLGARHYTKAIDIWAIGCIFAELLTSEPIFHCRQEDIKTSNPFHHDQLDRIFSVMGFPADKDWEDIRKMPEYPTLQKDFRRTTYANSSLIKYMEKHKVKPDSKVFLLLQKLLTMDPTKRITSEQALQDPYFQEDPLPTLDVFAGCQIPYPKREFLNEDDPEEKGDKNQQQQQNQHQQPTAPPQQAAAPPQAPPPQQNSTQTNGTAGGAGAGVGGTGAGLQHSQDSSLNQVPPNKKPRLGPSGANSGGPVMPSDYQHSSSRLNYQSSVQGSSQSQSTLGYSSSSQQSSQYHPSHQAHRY
Outcome measure: Kd (nM)
Your answer should be a plain number; it is taken to be in nM.

Could you share what Kd was measured for "Cc1ccc(C(=O)Nc2ccc(CN3CCN(C)CC3)c(C(F)(F)F)c2)cc1C#Cc1cnc2c(Nc3cnn(C)c3)cccn12" , tested on CDK11 (Homo sapiens, UniProt Q9BWU1)?
140

====

Test system: MDA-MB-231
Assay method text: Real time cell proliferation, IncuCyte ZOOM, 72 hours
Type: cell-based
Measurement context: Homo sapiens, MDA-MB-231, 72 h
Quick reference: pIC50 of the listed items.
Scale for pIC50: -log10 of concentration given in mol/L; no unit attached.

Take a look at these entries with their results.
Molecule: Cc1ccc(C(=O)Nc2ccc(Cl)c(C(F)(F)F)c2)cc1C#Cc1cnc2c(Nc3cnn(C4CCNCC4)c3)cccn12 [Example 63]
pIC50: 5.85

Molecule: Cc1ccc(C(=O)Nc2ccc(CN3CCN(C)CC3)c(C(F)(F)F)c2)cc1C#Cc1cnc2c(Nc3cnn(CCCN(C)C)c3)cccn12 [Example 26]
pIC50: 5.89

Molecule: Cc1ccc(C(=O)Nc2ccc(CN3CCC(N(C)C)C3)c(C(F)(F)F)c2)cc1C#Cc1cnc2c(Nc3cnn(C(C)C)c3)cccn12 (stereo not shown) [Example 30]
pIC50: 5.86

Field: pIC50 (MDA-MB-231). Entry: CCN1CCN(Cc2ccc(NC(=O)c3ccc(C)c(C#Cc4cnc5c(Nc6ncccc6F)cccn45)c3)cc2C(F)(F)F)CC1 [Example 17]
5.02

====

Tested system: T315I (Ba/F3) (Homo sapiens, UniProt P00519, T315I, cells depend on it)
Construct: fused on or other part: P11274 (Breakpoint cluster region protein)
Assay method text: Cancer cell proliferation inhibition, CCK-8, 72 hours
Assay type: cell-based
Measurement context: read-out: T315I (Ba/F3) IC50
GI50 strictly less than 60 nM = true. Otherwise false.

Solved cases (5 shown):
Molecule: CCN1CCN(Cc2ccc(NC(=O)c3ccc(C)c(C#Cc4cnc5c(Nc6cnn(CC)c6)cccn45)c3)cc2C(F)(F)F)CC1
Category label: true
--
Molecule: Cc1ccc(NC(=O)C2(C(=O)Nc3ccc(F)cc3)CC2)cc1C#Cc1cnc2c(Nc3cnn(C)c3)cccn12
Category label: false
--
Molecule: Cc1ccc(NC(=O)Nc2cc(C(C)(C)C(F)(F)F)on2)cc1C#Cc1cnc2c(Nc3cnn(C(C)C)c3)cccn12
Category label: false
--
Molecule: Cc1ccc(C(=O)Nc2ccc(CN3CC[C@H](N(C)C)C3)c(C(F)(F)F)c2)cc1C#Cc1cnc2c(Nc3cnn(C)c3)cccn12
Category label: true
--
Molecule: COc1cc(NC(=O)c2ccc(C)c(C#Cc3cnc4c(Nc5cnn(C)c5)cccn34)c2)cc(OC)c1
Category label: false

Continue with the molecule presented below.
Field: below-cutoff. Rule: recorded GI50 strictly less than 60 nM. Subject: "Cc1ccc(C(=O)Nc2ccc(CN3CCN(C)CC3)c(C(F)(F)F)c2)cc1C#Cc1cnc2c(Nc3cnn(C)c3)cccn12"
true

====

Test system: A375
Assay method text: Cancer cell proliferation inhibition, CCK-8, 72 hours
Assay type: cell-based
Measurement context: Homo sapiens, A-375, 72 h
Procedure: MTS assay was performed to evaluate the cancer cell proliferation inhibition (cancer cell apoptosis) effect of the compounds of examples of the present invention. […] A375, K-562 and Ba/F3-T315I cells were added with CCK-8 solution at the concentration of 10 μl/well, followed by orbital shaking for 30 seconds. […] OD450 was measured by using a microplate reader. […]
Listing of entries alongside the reported IC50.
API: value field is a number in nM; no unit string.

Form field - read-out: IC50; system: A375; submitted item: "Cc1ccc(C(=O)Nc2ccc(CN3CCN(C)[C@@H](C)C3)c(C(F)(F)F)c2)cc1C#Cc1cnc2c(Nc3cnn(CCCN(C)C)c3)cccn12"
1020

Identify the measured IC50 of "Cc1ccc(C(=O)Nc2ccc(CN3CCN(C)[C@@H](C)C3)c(C(F)(F)F)c2)cc1C#Cc1cnc2c(Nc3cnn(C(C)C)c3)cccn12" for A375.
406

I'm curious: which IC50 was measured for "CCN1CCN(Cc2ccc(NC(=O)c3ccc(C)c(C#Cc4cnc5c(Nc6ccn(C)n6)cccn45)c3)cc2C(F)(F)F)CC1" tested on A375?
259

API: value(readout=IC50, system=A375) for record "COCCn1cc(Nc2cccn3c(C#Cc4cc(C(=O)Nc5ccc(CN6CCN(C)[C@H](C)C6)c(C(F)(F)F)c5)ccc4C)cnc23)cn1"
97

Please provide the recorded IC50 for "Cc1ccc(C(=O)Nc2ccc(CN3CCCN(C)CC3)c(C(F)(F)F)c2)cc1C#Cc1cnc2c(Nc3cnn(CCCN(C)C)c3)cccn12" , tested on A375.
1520
